B1: HEEH_KT_rd6_0007 (parent)
chain: SIEEEIKKAEEAKEKGKTFIHGDFVATTEELLDELLKRLRKKL

Variants of: B1
measurement-description: folding stability dG (cDNA display proteolysis); higher = more stable
conditions: PBS, room temperature
The threshold is inclusive: folding stability dG of exactly 0.9 kcal/mol counts as met; values below receive not met.

Entry I2D : is its folding stability dG no less than 0.9 kcal/mol?
not met

Entry E29Q : is its folding stability dG no less than 0.9 kcal/mol?
met

Entry T18W : is its folding stability dG no less than 0.9 kcal/mol?
met

Entry S1N : is its folding stability dG no less than 0.9 kcal/mol?
met

Entry R40D : is its folding stability dG no less than 0.9 kcal/mol?
not met

Entry S1G : is its folding stability dG no less than 0.9 kcal/mol?
met

Entry R40E : is its folding stability dG no less than 0.9 kcal/mol?
not met

Entry R40F : is its folding stability dG no less than 0.9 kcal/mol?
met
